Documented inhibition across a set of molecules
Target or test system: Solute carrier family 2, facilitated glucose transporter member 1 (Homo sapiens) (UniProt P11166)
Sequence (P11166 whole entry): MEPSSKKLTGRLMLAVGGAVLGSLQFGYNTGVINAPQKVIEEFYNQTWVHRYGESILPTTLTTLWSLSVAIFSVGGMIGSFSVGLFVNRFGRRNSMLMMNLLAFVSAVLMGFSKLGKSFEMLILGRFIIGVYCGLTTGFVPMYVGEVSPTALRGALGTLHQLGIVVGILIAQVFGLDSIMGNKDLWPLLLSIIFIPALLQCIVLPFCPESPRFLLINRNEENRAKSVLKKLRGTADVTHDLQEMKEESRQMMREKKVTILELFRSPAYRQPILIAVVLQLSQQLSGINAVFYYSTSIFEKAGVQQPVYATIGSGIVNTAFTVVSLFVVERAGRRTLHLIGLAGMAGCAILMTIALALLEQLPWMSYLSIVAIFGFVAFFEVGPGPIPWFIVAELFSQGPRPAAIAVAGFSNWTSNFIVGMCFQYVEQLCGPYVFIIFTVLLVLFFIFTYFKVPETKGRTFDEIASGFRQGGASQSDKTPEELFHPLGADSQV
Test details: ST_JUDE_LEISH: Cytotoxicity at 2uM final concentration against transgenic Leishmania Mexicana promastigotes LmGLUT1 that are glucose transport deficient and complemented with the human glucose transporter GLUT1. Activity is measured by DNA content using SYBR green in vitro
Type: functional

[
  {
    "Molecule": "COc1ccc(O)c(C(=O)c2cc(C(=O)NCCc3ccccc3)c(=O)n(CCc3ccccc3)c2)c1",
    "Readout unit": "%",
    "inhibition": 4.48
  },
  {
    "Molecule": "COc1ccc2ncc(F)c(CCN3CC(O)C(CNCc4ccc5oc(=O)ccc5c4)C3)c2n1 (stereo unspecified)",
    "Readout unit": "%",
    "inhibition": 8.17
  },
  {
    "Molecule": "COc1ccc(Cn2c(=O)[nH]c3cc(C(=O)NC4CCN(Cc5ccccc5)CC4)ccc3c2=O)cc1",
    "Readout unit": "%",
    "inhibition": 2.2
  },
  {
    "Molecule": "O=c1cc(NCCCNC(c2ccccc2)c2ccc(Cl)c(Cl)c2)[nH]c2ccccc12 (stereo unspecified)",
    "Readout unit": "%",
    "inhibition": -1.95
  },
  {
    "Molecule": "O=C(Nc1ccc(-c2cccc(-c3nc4ccccc4[nH]3)c2)cc1)Nc1ccsc1",
    "Readout unit": "%",
    "inhibition": -0.72
  },
  {
    "Molecule": "O=C(/C=C/c1ccccc1Cl)Nc1ccc(Br)c(OCCN2CCCCC2)c1",
    "Readout unit": "%",
    "inhibition": 2.43
  },
  {
    "Molecule": "CCc1ccc(NC(=O)c2ccc(CN3CCCN(CCC(C)C)CC3)cc2)cc1",
    "Readout unit": "%",
    "inhibition": 7.61
  },
  {
    "Molecule": "CCn1c(SCC(=O)Nc2cc(C(F)(F)F)ccc2Cl)nc2ccccc2c1=O",
    "Readout unit": "%",
    "inhibition": 1.69
  },
  {
    "Molecule": "N#Cc1cc(C(=O)Nc2ccccc2)c(N)nc1SCC(=O)Nc1ccc(Br)cc1",
    "Readout unit": "%",
    "inhibition": 8.21
  },
  {
    "Molecule": "COCCN1CCN(Cc2cccc(-c3ccc(-c4nc5ccccc5[nH]4)cc3)c2)CC1",
    "Readout unit": "%",
    "inhibition": 0.45
  },
  {
    "Molecule": "Fc1ccc(CNc2ncc(-c3ccsc3)c(-c3nccs3)n2)cc1",
    "Readout unit": "%",
    "inhibition": 0.01
  }
]
